# Tested on: Rattus norvegicus
# Test Details: % Inhibition of angiotensin-I induced pressor response in normotensive rats after peroral dosing of 0.5 umol/kg
# Format: functional
# Condition Details: po
Decision: inhibition in vivo at 0.5 µmol/kg >= 40% yields true, all other cases yield false.

Please review the entries below; each comes with its answer.
                              record_smiles  class_label
0  C[C@H](N[C@@H](CCc1ccccc1)C(=O)O)C(=O)N1C[C@@H](Sc2ccccc2)C[C@H]1C(=O)O        false
1          C[C@H](CS)C(=O)N1CCC[C@H]1C(=O)O         true
2  CCOC(=O)[C@H](CCc1ccccc1)N[C@@H](C)C(=O)N1C[C@@H](Sc2ccccc2)C[C@H]1C(=O)O        false

Q) In plain terms: is recorded inhibition in vivo at 0.5 µmol/kg at least 40% for CCOC(=O)[C@H](CCc1ccccc1)N[C@@H](C)C(=O)N1CCC[C@H]1C(=O)O ?
A) true

* * *

# Test system: Rattus norvegicus
# Test Details: % Inhibition of angiotensin-I induced pressor response in normotensive rats after intravenous dosing of 1.5 umol/kg
# Assay type: functional
Recorded Metric: inhibition in vivo at 1.5 µmol/kg (%)
One number for each entry, in %.

// batch mode: one inhibition in vivo at 1.5 µmol/kg value per listed entry
1. O=C(O)[C@@H]1CCCN1C(=O)CP(=O)(O)CCCCc1ccccc1
2. CS[C@H]1C[C@@H](C(=O)O)N(C(=O)CP(=O)(O)CCCCc2ccccc2)C1
3. O=C(O)[C@@H]1C[C@H](Sc2ccccc2)CN1C(=O)CP(=O)(O)CCCCc1ccccc1

A)
86
89
65
